Origin of measurements: the supplement of paper PMC9112550

System: Escherichia coli TOP10
Experiment: shrunken log2 fold change of peptide-encoding DNA abundance (4.5 h post-induction vs induction); higher = less antimicrobial activity (less host growth inhibition)
Details: time post-induction: 4.5 h; library: site-saturation at positions 5, 18, 19, 20
Listing: shrunken log2 fold change of selected sequences
# output: bare number, no unit

Below are worked cases with known answers.
RRIRFRPPRLPRPRPRPWPHPRP | -0.132
RRIRKRPPRLPRPRPRPRMSPRP | -0.216
RRIRVRPPRLPRPRPRPILMPRP | -0.231

# return recorded shrunken log2 fold change for entry RRIRSRPPRLPRPRPRPTQQPRP 0.138

# return recorded shrunken log2 fold change for entry RRIRKRPPRLPRPRPRPSNEPRP -0.183

---

Tested on: Escherichia coli TOP10
Assay: shrunken log2 fold change of peptide-encoding DNA abundance (4.5 h post-induction vs induction); higher = less antimicrobial activity (less host growth inhibition)
Conditions: time post-induction: 4.5 h; library: site-saturation at positions 5, 18, 19, 20
Listing: shrunken log2 fold change of selected sequences
# output: bare number, no unit

RRIRMRPPRLPRPRPRPVSSPRP | -0.0703

# return recorded shrunken log2 fold change for entry RRIRNRPPRLPRPRPRPHHWPRP -0.0959

# return recorded shrunken log2 fold change for entry RRIRARPPRLPRPRPRPHHSPRP -0.404

# return recorded shrunken log2 fold change for entry RRIRGRPPRLPRPRPRPSAWPRP 1.94

# return recorded shrunken log2 fold change for entry RRIRMRPPRLPRPRPRPAVLPRP 0.0985

# return recorded shrunken log2 fold change for entry RRIRNRPPRLPRPRPRPITTPRP -0.225

# return recorded shrunken log2 fold change for entry RRIRCRPPRLPRPRPRPSITPRP -0.641

# return recorded shrunken log2 fold change for entry RRIRLRPPRLPRPRPRPRNVPRP -0.116

---

Tested on: Escherichia coli TOP10
Experiment: shrunken log2 fold change of peptide-encoding DNA abundance (4.5 h post-induction vs induction); higher = less antimicrobial activity (less host growth inhibition)
Conditions: time post-induction: 4.5 h; library: site-saturation at positions 5, 18, 19, 20
Listing: shrunken log2 fold change of selected sequences
# output: bare number, no unit

RRIRFRPPRLPRPRPRPDFTPRP | 0.138
RRIRKRPPRLPRPRPRPDFLPRP | 0.179
RRIRGRPPRLPRPRPRPKTVPRP | 0.662
RRIRNRPPRLPRPRPRPSGKPRP | 0.0521
RRIRARPPRLPRPRPRPCHVPRP | -0.0999

# return recorded shrunken log2 fold change for entry RRIRLRPPRLPRPRPRPMQLPRP -0.21

---

Listing: shrunken log2 fold change of selected sequences
Test system: Escherichia coli TOP10
Assay: shrunken log2 fold change of peptide-encoding DNA abundance (4.5 h post-induction vs induction); higher = less antimicrobial activity (less host growth inhibition)
Conditions: time post-induction: 4.5 h; library: site-saturation at positions 5, 18, 19, 20
# output: bare number, no unit

RRIRNRPPRLPRPRPRPAYEPRP | -0.0122
RRIRPRPPRLPRPRPRPDMYPRP | -0.192
RRIRMRPPRLPRPRPRPQHTPRP | -0.0951
RRIRHRPPRLPRPRPRPVNAPRP | -0.0381
RRIRNRPPRLPRPRPRPRMYPRP | -0.613

# return recorded shrunken log2 fold change for entry RRIRLRPPRLPRPRPRPRAPPRP 0.71

# return recorded shrunken log2 fold change for entry RRIRFRPPRLPRPRPRPALLPRP -0.00442

# return recorded shrunken log2 fold change for entry RRIRFRPPRLPRPRPRPCQMPRP -0.981

# return recorded shrunken log2 fold change for entry RRIRGRPPRLPRPRPRPAIVPRP 0.0899

# return recorded shrunken log2 fold change for entry RRIRHRPPRLPRPRPRPASFPRP -0.215

---

Listing: shrunken log2 fold change of selected sequences
Tested on: Escherichia coli TOP10
Experiment: shrunken log2 fold change of peptide-encoding DNA abundance (4.5 h post-induction vs induction); higher = less antimicrobial activity (less host growth inhibition)
Details: time post-induction: 4.5 h; library: site-saturation at positions 5, 18, 19, 20
# output: bare number, no unit

Below are worked cases with known answers.
RRIRVRPPRLPRPRPRPKLDPRP | 0.116
RRIRCRPPRLPRPRPRPQNNPRP | -0.526
RRIRDRPPRLPRPRPRPMFEPRP | 0.0172

# return recorded shrunken log2 fold change for entry RRIRMRPPRLPRPRPRPHNGPRP -0.337

# return recorded shrunken log2 fold change for entry RRIRNRPPRLPRPRPRPFRTPRP -0.066

# return recorded shrunken log2 fold change for entry RRIRQRPPRLPRPRPRPEASPRP -0.0802

# return recorded shrunken log2 fold change for entry RRIRPRPPRLPRPRPRPWVPPRP -0.228

# return recorded shrunken log2 fold change for entry RRIRMRPPRLPRPRPRPRSEPRP 0.81

# return recorded shrunken log2 fold change for entry RRIRQRPPRLPRPRPRPTCNPRP -0.348

# return recorded shrunken log2 fold change for entry RRIRLRPPRLPRPRPRPKIWPRP -0.0443

# return recorded shrunken log2 fold change for entry RRIRKRPPRLPRPRPRPGLMPRP 0.343

# return recorded shrunken log2 fold change for entry RRIRNRPPRLPRPRPRPTHLPRP 0.109

# return recorded shrunken log2 fold change for entry RRIRFRPPRLPRPRPRPPHNPRP 0.0036

# return recorded shrunken log2 fold change for entry RRIRNRPPRLPRPRPRPGGMPRP -0.0941

# return recorded shrunken log2 fold change for entry RRIRCRPPRLPRPRPRPMTQPRP -0.188

# return recorded shrunken log2 fold change for entry RRIRVRPPRLPRPRPRPDPMPRP -0.0769

# return recorded shrunken log2 fold change for entry RRIRGRPPRLPRPRPRPCFFPRP 0.392

# return recorded shrunken log2 fold change for entry RRIRWRPPRLPRPRPRPRQVPRP 0.16

# return recorded shrunken log2 fold change for entry RRIRTRPPRLPRPRPRPENHPRP -0.119

---

System: Escherichia coli TOP10
Test: shrunken log2 fold change of peptide-encoding DNA abundance (4.5 h post-induction vs induction); higher = less antimicrobial activity (less host growth inhibition)
Conditions: time post-induction: 4.5 h; library: site-saturation at positions 5, 18, 19, 20
Classes (shrunken log2 fold change): 0 (below -0.08), 1 (-0.08 to below 0.2), 2 (0.2 or more)

RRIRKRPPRLPRPRPRPHIDPRP | 1
RRIRRRPPRLPRPRPRPICLPRP | 1
RRIRCRPPRLPRPRPRPKKPPRP | 1
RRIRPRPPRLPRPRPRPLALPRP | 1
RRIRIRPPRLPRPRPRPKPVPRP | 1
RRIRIRPPRLPRPRPRPQSYPRP | 0

Bin? RRIRRRPPRLPRPRPRPTPPPRP 2

Bin? RRIRWRPPRLPRPRPRPMNPPRP 0

Bin? RRIRWRPPRLPRPRPRPTEMPRP 1

Bin? RRIRMRPPRLPRPRPRPWYPPRP 0

Bin? RRIRCRPPRLPRPRPRPCRYPRP 0

Bin? RRIRARPPRLPRPRPRPHGGPRP 2

---

System: Escherichia coli TOP10
Assay: shrunken log2 fold change of peptide-encoding DNA abundance (4.5 h post-induction vs induction); higher = less antimicrobial activity (less host growth inhibition)
Conditions: time post-induction: 4.5 h; library: site-saturation at positions 5, 18, 19, 20
Listing: shrunken log2 fold change of selected sequences
# output: bare number, no unit

Below are worked cases with known answers.
RRIRFRPPRLPRPRPRPVCRPRP | -0.0676
RRIRCRPPRLPRPRPRPPERPRP | 0.576
RRIRNRPPRLPRPRPRPDSYPRP | -0.054
RRIRDRPPRLPRPRPRPHMVPRP | -0.195
RRIRWRPPRLPRPRPRPQKIPRP | -0.178
RRIRPRPPRLPRPRPRPPKVPRP | 0.122

# return recorded shrunken log2 fold change for entry RRIRGRPPRLPRPRPRPFCQPRP 0.0716

# return recorded shrunken log2 fold change for entry RRIRKRPPRLPRPRPRPPMFPRP 0.269

---

Tested on: Escherichia coli TOP10;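 note: peptides expressed intracellularly from a pBAD plasmid library in pooled LB shake-flask culture, induced with 0.3% L-arabinose, DNA abundance read by NGS, three biological replicates, DESeq2 with apeglm shrinkage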
Assay: shrunken log2 fold change of peptide-encoding DNA abundance (4.5 h post-induction vs induction); higher = less antimicrobial activity (less host growth inhibition)
Conditions: time post-induction: 4.5 h; library: site-saturation at positions 5, 18, 19, 20
measure_name: shrunken log2 fold change
# output: bare number, no unit

Below are worked cases with known answers.
RRIRKRPPRLPRPRPRPFHYPRP | -0.0954
RRIRIRPPRLPRPRPRPDFRPRP | -0.371
RRIRNRPPRLPRPRPRPYMKPRP | -0.03
RRIRARPPRLPRPRPRPYLYPRP | -0.312

# return recorded shrunken log2 fold change for entry RRIRPRPPRLPRPRPRPPWVPRP 0.356

# return recorded shrunken log2 fold change for entry RRIRPRPPRLPRPRPRPKQLPRP 0.0245

# return recorded shrunken log2 fold change for entry RRIRNRPPRLPRPRPRPCTKPRP 0.00474

# return recorded shrunken log2 fold change for entry RRIRYRPPRLPRPRPRPCVVPRP -0.0208
